assay: Test for brain/cerebrospinal fluid transition; type: in vivo; conditions: cerebrospinal fluid; SD male rat, 2 hours after oral administration (10 mg/kg); read-out: concentration in the cerebrospinal fluid
endpoint.name: concentration at 2 h (nM)
Answer with a number only, understood to be in nM.

Supply reported concentration at 2 h belonging to this compound: C[C@H]1[C@H](c2ccc(OCCCN3CCCC3)cc2)Oc2ccccc2S1(=O)=O (single isomer, unassigned)
174
